System: Rattus norvegicus
Test: Antihypertensive activity in spontaneously hypertensive rats was measured as average blood pressure at 30 mg/kg, p.o. after 4 hours of postdose-1
Assay type: functional
Settings: route oral
# BP values compiled below
Provide the reading as a plain figure in mmHg.

Study these solved cases before continuing.
[
  {
    "smiles-data": "CC(=O)c1c(-c2ccc(Cl)cc2)c(-c2ccc(Cl)cc2)nn(CCOC(=O)C(C)(C)C)c1=O",
    "value-unit": "mmHg",
    "BP": 200
  },
  {
    "smiles-data": "CC(=O)c1c(-c2ccc(Cl)cc2)c(-c2ccc(Cl)cc2)nn(CCOC(=O)Cc2ccccc2)c1=O",
    "value-unit": "mmHg",
    "BP": 165
  },
  {
    "smiles-data": "CCCCCCCCCCCCCCCCCC(=O)OCCn1nc(-c2ccc(Cl)cc2)c(-c2ccc(Cl)cc2)c(C(C)=O)c1=O",
    "value-unit": "mmHg",
    "BP": 168
  },
  {
    "smiles-data": "CC(=O)c1c(-c2ccc(Cl)cc2)c(-c2ccc(Cl)cc2)nn(CCO)c1=O",
    "value-unit": "mmHg",
    "BP": 200
  },
  {
    "smiles-data": "CCC(=O)OCCn1nc(-c2ccc(Cl)cc2)c(-c2ccc(Cl)cc2)c(C(C)=O)c1=O",
    "value-unit": "mmHg",
    "BP": 133
  }
]

Could you now consider this next compound?
Respond only with BP recorded for `CC(=O)c1c(-c2ccc(Cl)cc2)c(-c2ccc(Cl)cc2)nn(CCOC(=O)c2ccccc2)c1=O`
116
